assay_metric: pKi
Please treat pKi as minus the base-10 logarithm of the molar concentration.

Query: Look up and report pKi, with Carbonic anhydrase 1 (Homo sapiens) as system, for COC[C@@H](NC(C)=O)C(=O)NCc1ccccc1 [LACOSAMIDE]
Sequence (P00915 whole entry): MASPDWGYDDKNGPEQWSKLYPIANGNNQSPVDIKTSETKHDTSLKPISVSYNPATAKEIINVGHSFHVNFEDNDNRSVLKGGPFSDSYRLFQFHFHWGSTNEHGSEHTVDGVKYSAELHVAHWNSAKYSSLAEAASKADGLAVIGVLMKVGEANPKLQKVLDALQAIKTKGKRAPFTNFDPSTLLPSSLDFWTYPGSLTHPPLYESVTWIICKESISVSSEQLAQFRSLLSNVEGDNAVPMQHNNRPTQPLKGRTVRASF
Result: 6.44

---

# assayed_target: Carbonic anhydrase 6 (Homo sapiens, UniProt P23280)
# Sequence (P23280 whole entry): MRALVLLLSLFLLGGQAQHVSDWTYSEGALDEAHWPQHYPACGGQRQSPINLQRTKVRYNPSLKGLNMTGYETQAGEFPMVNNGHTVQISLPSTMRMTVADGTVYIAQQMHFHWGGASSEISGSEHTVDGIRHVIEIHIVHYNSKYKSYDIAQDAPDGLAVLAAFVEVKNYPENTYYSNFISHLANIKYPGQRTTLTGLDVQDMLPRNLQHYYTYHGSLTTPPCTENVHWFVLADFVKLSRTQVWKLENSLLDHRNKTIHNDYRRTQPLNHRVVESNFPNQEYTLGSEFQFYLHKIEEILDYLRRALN
assay_metric: pKi
Please treat pKi as minus the base-10 logarithm of the molar concentration.

Query: Indicate its recorded pKi; the compound in question is COC[C@@H](NC(C)=O)C(=O)NCc1ccccc1 [LACOSAMIDE]
Result: 6.39

---

# assayed_target: UniProt Q9Y2D0
# Sequence (Q9Y2D0 whole entry): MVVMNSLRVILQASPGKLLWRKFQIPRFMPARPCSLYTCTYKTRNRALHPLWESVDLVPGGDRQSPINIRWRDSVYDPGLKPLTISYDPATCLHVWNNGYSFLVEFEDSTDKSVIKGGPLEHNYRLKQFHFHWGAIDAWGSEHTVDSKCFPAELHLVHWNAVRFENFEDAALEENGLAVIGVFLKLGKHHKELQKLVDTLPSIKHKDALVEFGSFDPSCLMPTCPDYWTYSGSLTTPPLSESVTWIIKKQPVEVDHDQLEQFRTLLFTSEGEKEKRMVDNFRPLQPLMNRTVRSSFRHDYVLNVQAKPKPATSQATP
assay_metric: pKi
Please treat pKi as minus the base-10 logarithm of the molar concentration.

Query: Indicate its recorded pKi; the compound in question is COC[C@@H](NC(C)=O)C(=O)NCc1ccccc1 [LACOSAMIDE]
Result: 6.47

---

assay_metric: pKi
Please treat pKi as minus the base-10 logarithm of the molar concentration.

Query: Look up and report pKi, with Carbonic anhydrase 14 (Homo sapiens, UniProt Q9ULX7) as system, for COC[C@@H](NC(C)=O)C(=O)NCc1ccccc1 [LACOSAMIDE]
Sequence (Q9ULX7 whole entry): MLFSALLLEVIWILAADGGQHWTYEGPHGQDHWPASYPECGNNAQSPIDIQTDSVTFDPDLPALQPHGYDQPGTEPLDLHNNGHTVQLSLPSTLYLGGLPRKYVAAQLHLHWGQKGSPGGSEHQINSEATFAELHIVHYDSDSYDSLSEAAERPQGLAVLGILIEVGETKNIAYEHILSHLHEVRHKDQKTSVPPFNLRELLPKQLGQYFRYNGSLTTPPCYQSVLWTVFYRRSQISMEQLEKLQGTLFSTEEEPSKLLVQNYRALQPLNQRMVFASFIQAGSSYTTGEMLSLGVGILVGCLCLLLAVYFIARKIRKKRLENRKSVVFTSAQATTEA
Result: 6.33

---

Record form. Attribute: pKi. Fill in for each entry.
Please treat pKi as minus the base-10 logarithm of the molar concentration.

Query: Look up and report pKi, with Carbonic anhydrase 3 (Homo sapiens, UniProt P07451) as system, for COC[C@@H](NC(C)=O)C(=O)NCc1ccccc1 [LACOSAMIDE]
Sequence (P07451 whole entry): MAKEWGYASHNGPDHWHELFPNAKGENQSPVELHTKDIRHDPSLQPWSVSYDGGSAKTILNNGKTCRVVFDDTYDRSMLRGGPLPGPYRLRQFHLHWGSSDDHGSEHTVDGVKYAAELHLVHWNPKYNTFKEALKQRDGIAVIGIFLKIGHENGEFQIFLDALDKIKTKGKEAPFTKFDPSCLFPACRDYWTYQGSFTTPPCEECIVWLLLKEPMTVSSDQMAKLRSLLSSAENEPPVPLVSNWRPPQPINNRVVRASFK
Result: 6.43

Query: Look up and report pKi, with Carbonic anhydrase 3 (Homo sapiens, UniProt P07451) as system, for Nc1ccc(S(N)(=O)=O)cc1 [SULFANILAMIDE]
Result: 6.01

---

Record form. Attribute: Ki. Fill in for each entry.
State the answer as a number, implicitly in nM.

Query: Look up and report Ki, with Carbonic anhydrase 13 (Homo sapiens, UniProt Q8N1Q1) as system, for Nc1ccc(S(N)(=O)=O)cc1 [SULFANILAMIDE]
Sequence (Q8N1Q1 whole entry): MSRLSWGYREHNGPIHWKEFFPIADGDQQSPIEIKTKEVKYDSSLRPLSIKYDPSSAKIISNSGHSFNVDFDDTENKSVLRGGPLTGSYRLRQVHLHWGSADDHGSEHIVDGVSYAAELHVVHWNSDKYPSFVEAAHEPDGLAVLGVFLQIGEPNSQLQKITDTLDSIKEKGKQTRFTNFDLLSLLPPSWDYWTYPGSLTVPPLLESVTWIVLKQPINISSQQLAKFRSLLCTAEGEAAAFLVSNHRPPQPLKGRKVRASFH
Result: 32

Query: Look up and report Ki, with Carbonic anhydrase 13 (Homo sapiens, UniProt Q8N1Q1) as system, for COC[C@@H](NC(C)=O)C(=O)NCc1ccccc1 [LACOSAMIDE]
Result: 1210

---

# assayed_target: Carbonic anhydrase 5A, mitochondrial (Homo sapiens, UniProt P35218)
# Sequence (P35218 whole entry): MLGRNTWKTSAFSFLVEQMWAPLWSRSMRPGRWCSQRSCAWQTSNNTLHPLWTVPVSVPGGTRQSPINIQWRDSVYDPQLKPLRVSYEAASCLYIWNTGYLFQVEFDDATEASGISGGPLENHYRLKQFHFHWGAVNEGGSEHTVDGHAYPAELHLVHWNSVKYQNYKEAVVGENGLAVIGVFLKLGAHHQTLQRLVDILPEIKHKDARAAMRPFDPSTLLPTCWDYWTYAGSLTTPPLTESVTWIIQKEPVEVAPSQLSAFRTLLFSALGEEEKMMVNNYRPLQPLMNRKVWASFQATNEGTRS
assay_metric: pKi
Please treat pKi as minus the base-10 logarithm of the molar concentration.

Query: Indicate its recorded pKi; the compound in question is COC[C@@H](NC(C)=O)C(=O)NCc1ccccc1 [LACOSAMIDE]
Result: 5.34

---

# assayed_target: Carbonic anhydrase 12 (Homo sapiens, UniProt O43570)
# Sequence (O43570 whole entry): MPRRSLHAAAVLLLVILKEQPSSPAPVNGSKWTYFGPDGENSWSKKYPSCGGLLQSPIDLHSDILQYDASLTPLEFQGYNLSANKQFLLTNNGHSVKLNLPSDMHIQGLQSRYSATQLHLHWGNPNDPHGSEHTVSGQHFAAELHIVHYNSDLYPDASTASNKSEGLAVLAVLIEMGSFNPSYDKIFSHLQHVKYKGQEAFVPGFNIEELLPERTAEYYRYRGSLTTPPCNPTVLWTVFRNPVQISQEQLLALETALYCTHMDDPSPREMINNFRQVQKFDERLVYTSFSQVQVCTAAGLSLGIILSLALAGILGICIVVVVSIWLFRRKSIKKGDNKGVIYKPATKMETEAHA
# assay_comment: Inhibition of human recombinant CA12 by stopped flow CO2 hydrase assay
assay_metric: pKi
Please treat pKi as minus the base-10 logarithm of the molar concentration.

Query: Indicate its recorded pKi; the compound in question is COC[C@@H](NC(C)=O)C(=O)NCc1ccccc1 [LACOSAMIDE]
Result: 5.43

---

Record form. Attribute: pKi. Fill in for each entry.
Please treat pKi as minus the base-10 logarithm of the molar concentration.

Query: Look up and report pKi, with Carbonic anhydrase 15 (Mus musculus) as system, for `COc1cc2oc(=O)ccc2cc1[C@@H](O)CC(C)C`
Sequence (Q99N23 whole entry): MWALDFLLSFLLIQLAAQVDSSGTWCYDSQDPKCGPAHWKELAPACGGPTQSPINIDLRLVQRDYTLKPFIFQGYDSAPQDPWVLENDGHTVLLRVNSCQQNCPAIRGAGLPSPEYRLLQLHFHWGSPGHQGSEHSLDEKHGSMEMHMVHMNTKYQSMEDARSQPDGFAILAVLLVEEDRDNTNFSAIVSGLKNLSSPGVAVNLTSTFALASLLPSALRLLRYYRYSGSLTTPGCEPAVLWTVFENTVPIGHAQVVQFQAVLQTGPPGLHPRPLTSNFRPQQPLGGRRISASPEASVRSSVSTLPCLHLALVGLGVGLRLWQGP
Result: 4.03

Query: Look up and report pKi, with Carbonic anhydrase 15 (Mus musculus) as system, for COC[C@@H](NC(C)=O)C(=O)NCc1ccccc1 [LACOSAMIDE]
Result: 6.34
